biological target: DNA-PK(h) (Homo sapiens, UniProt P78527); experiment: Evaluation of inhibitory activity against DNA-PK (HTRF kinase assay, GST-cMyc-p53 substrate); type: biochemical; details: compound concentration 0.01 μM; read-out: EXP_VALUE(% Inhibition) DNA-PK(h) 0.01 μM
PARAMETER: inhibition at 0.01 µM (%)

| COMPOUND_SMILES | PARAMETER | SCALE_UNIT | MEASURED |
| --- | --- | --- | --- |
| C[C@H](Nc1ncnc2[nH]ccc(=O)c12)c1c(Cl)c2cccc(Nc3ccccc3)c2c(=O)n1-c1ccccc1 | inhibition at 0.01 µM | % | -1 |
| C[C@H](Nc1ncnc2[nH]ccc(=O)c12)c1c(Cl)c2cccc(-c3ccc(C(F)(F)F)cc3Cl)c2c(=O)n1-c1ccccc1 | inhibition at 0.01 µM | % | 44 |
| C[C@H](Nc1ncnc2[nH]ccc(=O)c12)c1c(Cl)c2cccc(-c3ncc(C(F)(F)F)cn3)c2c(=O)n1-c1ccccc1 | inhibition at 0.01 µM | % | -2 |
| CCNc1cccc2c(Cl)c([C@H](C)Nc3ncnc4[nH]ccc(=O)c34)n(-c3ccccc3)c(=O)c12 | inhibition at 0.01 µM | % | 12 |

* * *

target: DNA-PK(h) (Homo sapiens, UniProt P78527); assay: Evaluation of inhibitory activity against DNA-PK (HTRF kinase assay, GST-cMyc-p53 substrate); assay type: biochemical; settings: compound concentration 0.01 μM; read-out: EXP_VALUE(% Inhibition) DNA-PK(h) 0.01 μM

| MOLECULE | inhibition at 0.01 µM (%) |
| --- | --- |
| COc1cc(-c2cccc3c(Cl)c([C@H](C)Nc4ncnc5[nH]ccc(=O)c45)n(-c4ccccc4)c(=O)c23)cnc1OC [Example 170] | 66 |
| Cc1c(F)cccc1-c1cccc2c(Cl)c([C@H](C)Nc3ncnc4[nH]ccc(=O)c34)n(-c3ccccc3)c(=O)c12 [Example 109] | 10 |
| C[C@H](Nc1ncnc2[nH]ccc(=O)c12)c1c(Cl)c2cccc(-c3ccc(C(F)(F)F)cc3)c2c(=O)n1-c1ccccc1 [Example 68] | 48 |
| C[C@H](Nc1ncnc2[nH]ccc(=O)c12)c1c(Cl)c2cccc(-c3cc(F)ccc3Cl)c2c(=O)n1-c1ccccc1 [Example 107] | 24 |
| C[C@H](Nc1ncnc2[nH]ccc(=O)c12)c1c(Cl)c2cccc(C(=O)O)c2c(=O)n1-c1ccccc1 [Example 290] | 39 |
| C[C@H](Nc1ncnc2[nH]ccc(=O)c12)c1c(Cl)c2cccc(-c3cnc(N4CCCC4)nc3)c2c(=O)n1-c1ccccc1 [Example 222] | 55 |
| Cc1ccc(Oc2cccc3c(Cl)c([C@H](C)Nc4ncnc5[nH]ccc(=O)c45)n(-c4ccccc4)c(=O)c23)cc1 [Example 367] | 21 |
| C[C@H](Nc1ncnc2[nH]ccc(=O)c12)c1c(Cl)c2cccc(CO)c2c(=O)n1-c1ccccc1 [Example 355] | 47 |
| C[C@H](Nc1ncnc2[nH]ccc(=O)c12)c1c(Cl)c2cccc(-c3cnc(OC(C)(C)C)cn3)c2c(=O)n1-c1ccccc1 [Example 206] | 29 |
| C[C@H](Nc1ncnc2[nH]ccc(=O)c12)c1c(Cl)c2cccc(-c3cc(F)cc(Cl)c3)c2c(=O)n1-c1ccccc1 [Example 104] | 16 |
| C[C@H](Nc1ncnc2[nH]ccc(=O)c12)c1c(Cl)c2cccc(N3CCN(C)CC3)c2c(=O)n1-c1ccccc1 [Example 250] | 0 |
| Cc1nc(N)ncc1-c1cccc2c(Cl)c([C@H](C)Nc3ncnc4[nH]ccc(=O)c34)n(-c3ccccc3)c(=O)c12 [Example 212] | 57 |
| C[C@H](Nc1ncnc2[nH]ccc(=O)c12)c1c(Cl)c2cccc(N3CCN(c4ccncc4)CC3)c2c(=O)n1-c1ccccc1 [Example 9] | 60 |
